Values from patent US20090075978A1

target: UniProt:P41594; assay: Functional Ca2+ influx assay in the mGluR5 receptor assay (CHO-hmGluR5 cells, DHPG); settings: 10 μM DHPG, Ki=IC50/(1+(AGconc/EC50))
Sequence (P41594 21-1212): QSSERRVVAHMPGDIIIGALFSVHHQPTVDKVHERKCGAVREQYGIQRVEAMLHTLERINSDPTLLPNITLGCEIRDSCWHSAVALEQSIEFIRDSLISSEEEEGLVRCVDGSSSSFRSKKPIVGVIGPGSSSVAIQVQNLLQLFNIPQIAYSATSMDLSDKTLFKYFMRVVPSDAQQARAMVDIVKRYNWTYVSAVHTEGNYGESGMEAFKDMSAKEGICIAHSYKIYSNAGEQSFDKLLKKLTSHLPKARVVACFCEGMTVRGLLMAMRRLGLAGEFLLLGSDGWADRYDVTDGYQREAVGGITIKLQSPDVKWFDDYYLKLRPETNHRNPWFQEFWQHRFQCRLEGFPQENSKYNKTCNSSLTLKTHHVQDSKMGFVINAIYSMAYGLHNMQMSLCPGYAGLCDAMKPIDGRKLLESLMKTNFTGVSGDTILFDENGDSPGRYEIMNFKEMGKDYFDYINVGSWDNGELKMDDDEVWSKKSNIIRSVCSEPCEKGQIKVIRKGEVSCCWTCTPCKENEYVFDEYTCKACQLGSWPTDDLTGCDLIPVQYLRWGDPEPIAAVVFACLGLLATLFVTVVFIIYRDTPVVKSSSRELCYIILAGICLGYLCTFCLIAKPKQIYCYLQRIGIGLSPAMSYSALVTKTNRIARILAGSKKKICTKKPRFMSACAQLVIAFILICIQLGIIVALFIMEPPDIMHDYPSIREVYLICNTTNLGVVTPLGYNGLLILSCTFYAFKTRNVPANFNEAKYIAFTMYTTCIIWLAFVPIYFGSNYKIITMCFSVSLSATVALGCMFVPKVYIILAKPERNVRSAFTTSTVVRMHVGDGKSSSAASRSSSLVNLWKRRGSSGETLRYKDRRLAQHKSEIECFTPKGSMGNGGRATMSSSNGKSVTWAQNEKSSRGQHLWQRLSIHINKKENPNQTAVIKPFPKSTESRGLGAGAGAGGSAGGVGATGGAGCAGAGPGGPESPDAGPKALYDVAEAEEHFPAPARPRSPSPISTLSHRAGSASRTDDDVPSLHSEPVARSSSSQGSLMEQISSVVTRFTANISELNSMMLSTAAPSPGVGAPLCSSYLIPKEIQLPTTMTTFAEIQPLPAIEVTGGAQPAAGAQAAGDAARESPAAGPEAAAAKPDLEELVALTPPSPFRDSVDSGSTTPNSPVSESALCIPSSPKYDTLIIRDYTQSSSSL
experimental-endpoint: log10(Ki) (log10 of the value in nM)
Scale type: logarithmic (base 10). Underlying Ki unit: nM.

Here are 4 compounds together with their reported answers.
compound	log10(Ki)
CC1c2ccccc2CCN1C(=O)C#Cc1cccc(Cl)c1 (stereo not drawn) [Example 18]	0.08
COc1cccc2c1CCN(C(=O)C#Cc1cccc(Cl)c1)C2 [Example 30]	-0.05
O=C(C#Cc1cccc(Cl)c1)N1CCc2ccccc2CC1 [Example 12]	-0.52
O=C(C#Cc1ccccc1)N1CCc2ccccc2C1 [Example 1]	1.06

Recall the recorded log10(Ki) for CC1Cc2ccccc2CN1C(=O)C#Cc1cccc(Cl)c1 (stereo not drawn) [Example 19] with UniProt:P41594 and state it. 0.69

Recall the recorded log10(Ki) for O=C(C#Cc1cccc(Cl)c1)N1CCc2ccccc2C1 [Example 5] with UniProt:P41594 and state it. 0.00
